Consider the following compounds; for each one, report its melting point.

Query: melting point; subject: `O=C(NCc1ccc(Cl)cc1)c1cnc2ccc(C#CCO)cn2c1=O`
179 to 181 °C

Now give it for `O=C(NCc1ccc(Cl)cc1)c1noc2ccc(C#CCO)cc2c1=O` too.
117 to 120 °C

Now give it for `O=C(NCc1ccc(Cl)cc1)c1nn(-c2ccccc2)c2sc(CN3CCOCC3)cc2c1=O` too.
182 to 184 °C

Now give it for `Cn1nc(C(=O)NCc2ccc(Cl)cc2)c(=O)c2cc(C#CCO)cnc21` too.
201 to 206 °C

Now give it for `CN1c2ccc(C#CCO)cc2C(O)=C(C(=O)NCc2ccc(Cl)cc2)S1(=O)=O` too.
167 to 168 °C

Now give it for `O=C(NCc1ccc(Cl)cc1)c1coc2ccc(C#CCO)cc2c1=O` too.
185 to 186 °C

Now give it for `O=C(NCc1ccc(Cl)cc1)c1ccc2sc(CN3CCOCC3)cc2c1O` too.
200 °C

Now give it for `CN1N=C(C(=O)NCc2ccc(Cl)cc2)S(=O)(=O)c2cc(C#CCO)sc21` too.
98 °C (dec.)
